The reported numbers originate from the supplement of paper PMC10567573.

PROTOCOL_NOTES: protein stability index of a GFP-peptide fusion (GPS, HEK-293T) (PSI 1-6); higher = more stable;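 further: 24-mer peptide tiles fused after GFP, lentivirally expressed, FACS-sorted into six equal bins by GFP/DsRed ratio, decoded by Illumina sequencing, PSI is the read-weighted mean bin number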
CONDITION_CONTEXT: treatment: DMSO; c terminus: a fixed tail appended
Exercise: for every item that follows, state its recorded protein stability index.

Note to self: protein stability index recorded for GHEYAAKIINTKKLSARDHQKLER [CAMK2B] was 4.09

// TSSKVNATVPSNMMSVNGQAKTHT [ACBD3] : protein stability index value = 4.38

The reported protein stability index of the sequence TYLENKGHRYPCFFNTLHVGGTIR [POP5] was 2.23

protein stability index recorded for this sequence, QEILHRDLKLGNFFINEAMELKVG [PLK2] , is 2.58

The sequence listed as PTPDDHVFRWLAYSYASTHRLMTD [CPXM2] shows protein stability index equal to 2.64

Just so you know, measured protein stability index for CTDHELENHSMYCVQCKMPVCYQC [TRIM9] came out at 4.23

response.value for ELFIEISRRIPSTDANLPSGGKGF [RAB22A] (field: protein stability index) = 2.36

// protein stability index value for QALAQAIKEAKEQHPDMSVTKVVV [EPB41L3] : 2.44

Given item IVETLTVGCKGSKAGIEQEGYWLP [ZMYND11] , the value recorded as its protein stability index is 2.21

The sequence identified as KCLKFLGSRHPTLVLPLVPELLST [INTS4] registered its protein stability index at 2.29

# protein stability index (sequence: TDFYLIFNDVAKFLKQGDSADETT [CMTM3] ) is 2.75

Documented protein stability index of LPSSGEGLAFFTFPNIASATKFKQ [HMOX1] : 2.75

Kindly note the recorded protein stability index for REHAKARVDHGAEIITQSPGRSSV [MAP2] , which is 4.75

The sequence GVRVSVPCPSTTCCRACSVSFSTG [BET1L] showed protein stability index equal to 2.49

Form: sequence = HDYIVRSGERWLERYEIDSLIGKG [DYRK1B] ; protein stability index = 2.95

Record summary for RPIGEFRSNADYQYQLLRCNVDLL [CNOT7] : reported protein stability index = 2.5

Field protein stability index (entry MLALRGQTGGDVNVEMDAAPGVDL [KRT16] ) reads 4.25

The reported protein stability index of the sequence LSVIQMVAFLEQRASALLASCSKN [FBXO34] was 2.81

Please fill in: protein stability index reported for TAKRINRTSLSSGATVRSFSINSR [CDC14A] = 3.26

response.value for GNFDWEAIFDAGTLGGELGALEAL [FOXJ1] (field: protein stability index) = 4.15

# protein stability index (sequence: YYPRVQHYRELLDSLPMDAYTHGC [GDAP1] ) is 2.21

response.value for DTGVAFELRDSSAYHVPNRTLASG [DNAAF3] (field: protein stability index) = 3.87

Lab book: protein stability index of AAMFGGSFVESANSEVYLPNINKI [RHOBTB1] noted as 2.93

Value of measured protein stability index for the entry EDERWTNNFREYNLHRVAAHELGH [MMP1] : 3.73

The reported value for DAQEIMQSLRDLGVKISEQQAEKI [SLC25A25] in terms of protein stability index is 3.81

Looking up RYNDFVVFQEMLLHKFPYRMVPAL [SNX8] , I found its protein stability index recorded as 2.51

Short answer for PEQQVDMHDMLLEELAPVGTAHIP [ZNF449] : protein stability index was 4.68

The sequence listed as TTADLDRKLSFSHSDHSSEMSLPE [SPATS1] has a reported protein stability index of 5.08

Measured protein stability index of LHPRGKNNFSPLHLAVDKNTTCVG [FEM1C] : 3.39

Memo: SESRGSSGRVKRERDREREPEAAS [USP39] , reported protein stability index: 5.53

Form: sequence = GILHYAHGDSQQTHLLKQGRSSMG [CRY1] ; protein stability index = 3.6

# sequence PRLQELLGPSPQRDPQAVKERALS [ZNF263] ; its protein stability index = 4.6

The value of protein stability index measured for the sequence YISLLLRAEPYPTSRFGSQCMQPN [NR2F2] turned out to be 2.55

GET /value?item= EIELQAQHNLRDSLENTLTESEAH [KRT34] &field=protein stability index returns 5.3

Kindly note the recorded protein stability index for ETQKLLCKNGETLLGAVNFFVSSI [ARFIP2] , which is 2.49

Measured protein stability index, LEENELTSLAEDLLGLTDPNGGLA [TRADD] : 4.49

# sequence SPYLGQMINLRRLLLSHIHASSYI [PRAME] ; its protein stability index = 2.7

protein stability index recorded for this sequence, AFYRLADLFGWSQLIYNHITTRVN [ADD1] , is 3.25

Memo: TLDSYEDKQKLKRTEIISRSWFPS [YJU2B] , reported protein stability index: 3.14

The reported value for YKIVTAREWRCCPGHSGVSCEEVA [EMID1] in terms of protein stability index is 2.49

// protein stability index value for EFQMFPKSRLSSVSVTYCSVSQDF [ETS2] : 2.23

Quick note, protein stability index for QAEVLSRQITSPVSGINGDIRAKK [HNF4A] landed at 5.05

protein stability index reading for DNWIPLLWCANILGYAVSTFAMVK [DHCR7] : 3.04

protein stability index reported for this sequence SQDFVGEKLGSGEPSHSVKVHTVP [ATE1] : 4.78

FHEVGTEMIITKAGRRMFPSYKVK [TBX5] has a reported protein stability index of 2.35

According to the records, this sequence RTDYSGRGELSARQMHLARFLRML [RAD51] displays protein stability index of 2.18

Entry ETVYAAYLPKNTHPFLYLSLEISP [MLH1] — recorded protein stability index = 2.82

Entry under test: RVQAAAFGPGQTLLSSVHVLDLEA [ALKBH7] . Its protein stability index was 3.02

For record SPVSRNRLAQVKRKILVLDLDETL [CTDNEP1] the listed protein stability index is 2.6

Form: sequence = GLNDALDNLRKVVPCYSKTQKLSK [NEUROD6] ; protein stability index = 3.25

protein stability index reported for this sequence LMELDMAMEPDRKAAVSHWQQQSY [CTNNB1] : 3.11

Noted for RRKGEMGLSAEDGVWAVIISHQQC [TRIM15] : its protein stability index reads 2.36

protein stability index in this record for GFRGSDDMELHRMSRMQSKEYPVV [TBX5] : 3.93
